Biological target: T1, rhCD39-ECD-His (R&D Systems) (human, UniProt P49961 38-478)
T1 construct: Bought protein; that entry runs on through the C-terminal transmembrane and cytoplasmic residues; also called recombinant human CD39 extracellular domain; soluble recombinant human CD39 (ENTDP1) ECD; not shown: His tag
T1 sequence: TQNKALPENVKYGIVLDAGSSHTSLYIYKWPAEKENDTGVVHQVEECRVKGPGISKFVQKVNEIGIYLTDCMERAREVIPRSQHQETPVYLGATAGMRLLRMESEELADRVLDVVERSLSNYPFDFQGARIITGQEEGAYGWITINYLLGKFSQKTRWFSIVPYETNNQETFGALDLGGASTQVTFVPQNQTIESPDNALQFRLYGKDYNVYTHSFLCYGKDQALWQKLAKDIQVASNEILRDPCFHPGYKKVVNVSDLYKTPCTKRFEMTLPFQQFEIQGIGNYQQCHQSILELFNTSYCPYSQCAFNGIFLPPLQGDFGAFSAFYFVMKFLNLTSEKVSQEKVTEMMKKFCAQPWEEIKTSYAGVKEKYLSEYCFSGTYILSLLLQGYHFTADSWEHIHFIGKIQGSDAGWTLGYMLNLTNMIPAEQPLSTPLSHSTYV
Assay: BLI (Octet), IgG on anti-human Fc sensor, rhCD39-ECD-His 10-300 nM, 1:1 fit
reported_endpoint: log10 of Kd (log10 of the value in nM)

>>> val("29871 (antibody, V domains shown) VH: QVQLVQSGAEVKKPGASVKVSCKASGYTFQSYYMHWVRQAPGQGLEWMGKINPSGGSTWYAQKFQGRVTMTRDTSTSTVYMELSSLRSEDTAVYYCARGKREGGTEYLRHWGQGTLVTVSS VL: EIVLTQSPGTLSLSPGERATLSCRASQSVSSSYLAWYQQKPGQAPRLLIYGASSRATGIPDRFSGSGSGTDFTLTISRLEPEDFAVYYCQQYHSYITFGGGTKVEIK")
2.39
>>> val("27587 (antibody, V domains shown) VH: QVQLVQSGAEVKKPGSSVKVSCKASGGTFSSYAISWVRQAPGQGLEWMGSIIPIFGTANYAQKFQGRVTITADESTSTAYMELSSLRSEDTAVYYCARESGGYRDHKLDVWGQGTMVTVSS VL: EIVLTQSPATLSLSPGERATLSCRASQSVSSYLAWYQQKPGQAPRLLIYDASKRATGIPARFSGSGSGTDFTLTISSLEPEDFAVYYCQQDVLWPLTFGGGTKVEIKR")
1.53
>>> val("27597 (antibody, V domains shown) VH: QVQLVQSGAEVKKPGSSVKVSCKASGGTFSSYAISWVRQAPGQGLEWMGSIIPIFGTANYAQKFQGRVTITADESTSTAYMELSSLRSEDTAVYYCAREGRGYDSSRYYKFWFDPWGQGTLVTVSS VL: EIVLTQSPATLSLSPGERATLSCRASQSVSSYLAWYQQKPGQAPRLLIYDASNRATGIPARFSGSGSGTDFTLTISSLEPEDFAVYYCQQFVLWPRTFGGGTKVEIKR")
2.53
>>> val("31421 (antibody, V domains shown) VH: QVQLVQSGAEVKKPGASVKVSCKASGYTFFSYYMYWVRQAPGQGLEWMGVINPLGGGTSYAQKFQGRVTMTRDTSTSTVYMELSSLRSEDTAVYYCARGKREGGTEYLRHWGQGTLVTVSS VL: EIVLTQSPGTLSLSPGERATLSCKASESVSSSYLAWYQQKPGQAPRLLIYYASSRATGIPDRFSGSGSGTDFTLTISRLEPEDFAVYYCQQYHRRITFGGGTKVEIK")
1.27
>>> val("31873 (antibody, V domains shown) VH: QVQLVQSGAEVKKPGSSVKVSCKASGGTFSKYGISWVRQAPGQGLEWMGSIIPEFGIANYAQKFQGRVTITADESTSTAYMELSSLRSEDTAVYYCARESGGYRDHRLGVWGQGTMVTVSS VL: EIVMTQSPATLSVSPGERATLSCRASQSVGSNLAWYQQKPGQAPRLLIYGASTRASGIPARFSGSGSGTEFTLTISSLQSEDFAVYYCQQYLLWPLTFGGGTKVEIKR")
-0.04
